target: alanyl aminopeptidases (APN) (Homo sapiens, UniProt P15144); experiment: Inhibition of alanyl aminopeptidase enzymatic activity, fluorogenic substrate (Ala)2-rhodamine 110; type: biochemical; settings: Table 6; read-out: IC50APN
Sequence (P15144 whole entry, species assumed): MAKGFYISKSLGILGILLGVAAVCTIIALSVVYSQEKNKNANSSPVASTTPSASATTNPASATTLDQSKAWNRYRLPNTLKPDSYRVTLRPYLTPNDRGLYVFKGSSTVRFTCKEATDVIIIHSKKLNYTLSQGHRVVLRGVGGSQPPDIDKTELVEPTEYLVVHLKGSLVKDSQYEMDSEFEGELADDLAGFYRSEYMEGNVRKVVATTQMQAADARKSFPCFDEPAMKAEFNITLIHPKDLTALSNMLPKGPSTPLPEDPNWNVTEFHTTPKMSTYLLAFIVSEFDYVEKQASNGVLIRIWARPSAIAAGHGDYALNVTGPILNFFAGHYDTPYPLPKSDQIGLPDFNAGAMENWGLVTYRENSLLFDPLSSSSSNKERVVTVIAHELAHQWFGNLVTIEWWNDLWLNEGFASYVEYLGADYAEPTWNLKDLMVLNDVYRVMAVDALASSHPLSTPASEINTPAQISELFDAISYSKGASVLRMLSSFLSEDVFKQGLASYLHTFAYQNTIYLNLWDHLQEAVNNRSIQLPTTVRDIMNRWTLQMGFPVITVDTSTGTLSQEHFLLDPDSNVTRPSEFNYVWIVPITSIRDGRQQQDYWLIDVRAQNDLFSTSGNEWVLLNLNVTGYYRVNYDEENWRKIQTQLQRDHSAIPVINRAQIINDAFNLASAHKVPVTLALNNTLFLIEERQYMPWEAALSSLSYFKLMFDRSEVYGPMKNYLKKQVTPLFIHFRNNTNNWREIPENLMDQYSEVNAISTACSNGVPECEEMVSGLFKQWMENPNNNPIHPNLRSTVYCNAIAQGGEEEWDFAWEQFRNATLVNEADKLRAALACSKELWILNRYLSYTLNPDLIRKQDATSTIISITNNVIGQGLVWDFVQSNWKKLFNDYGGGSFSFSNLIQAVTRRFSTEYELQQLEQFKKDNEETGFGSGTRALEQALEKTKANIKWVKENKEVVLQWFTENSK
pIC50: −log10 of the molar value.
measurementName: pIC50

{"molecule": "Cc1ccc(S(=O)(=O)N2CCC(C(=O)N/N=C/c3ccco3)CC2)cc1", "pIC50": 4.16}

A. CCOC(=O)c1c(C)oc2c1c1c(c3ccccc32)OCN(C2CCS(=O)(=O)C2)C1 (stereo not shown)
B. COc1ccc(C(=O)Nc2ccc(S(=O)(=O)N3CCCCC3)cc2)cc1
Task item: Of A and B , whose reported pIC50 is the larger number? Choose, then provide that item's label.
Reply: B
